Tested on: cyclooxygenase
Test: standard assay system using polymorphonuclear leukocytes (production of HHT or TXB2 from [14C] arachidonic acid)
Format: cell-based
Conditions: intact polymorphonuclear leukocytes from guinea pig, 4 x 10^7 cells, 37°C, 5 minutes, read-out: concentrations for 50% inhibitions on cyclooxygenase
Where a name gives a salt, the structure may show the parent alone.
Property: IC50

[[record]]
molecule = "Cc1ccc(Sc2ccc(O)c(N)c2)cc1.Cl [hydrochloride]"
assay_value = "300 nM"


Quick batch: IC50 for everything below.
1. Nc1cc(Sc2ccc(Cl)cc2)ccc1O [hydrochloride]
2. Nc1cc(Sc2ccccc2)ccc1O [2-amino-4-phenylthiophenol hydrochloride, 2-Amino-4-phenylthiophenol hydrochloride]

Response given:
1: 300 nM; 2: 300 nM
